All values here come from the supplement of paper PMC9170038.

- Tested on: MS2 coat protein
- Test Name: apparent KD of MS2 coat protein; higher = weaker reporter binding
- Measurement Context: Eterna round: R107; input ligand: arginine 13.2 mM
Assign class by apparent KD of MS2 coat protein: not lower than 20 nM means Met; lower than 20 nM means Not met.

# count of solved cases: 5
[[record]]
ordered_residues = "GGUCAGCAGUCGGCCGCCACUAGUAUACAUGAGGAUCACCCAUGUCCCUUGCGCCUCACCGAUUUUAGGACCGGGACACUGCCUG [theeternabot_exclusion_MS2_Trp_B_9]"
answer_label = "Met"

[[record]]
ordered_residues = "UGUAACAUGAGGAUCACCCAUGUGCACGAUACCAGCUUAUUGGUAGGCCCUUGGCAGCGUAUUCGGAAGAUGUAUAAUAUAUAUC [#26 SameState-TheophyllineA]"
answer_label = "Not met"

[[record]]
ordered_residues = "AAUGUAUGGCACAUGAGGAUCACCCAUGUGCGAGGACCGGUACGGCCGCCACUCGGUCCUGGGAACUUAUUACUAUACAUUAAUG [XTryp A #18]"
answer_label = "Not met"

[[record]]
ordered_residues = "ACACAAUACAUGAGGAUCACCCAUGUAAAACGAGGACCGGUACGGCCGCCACUCGAAUACAGGAAACCUCGGAAUAUUAAGUGAA [JR_ExcTryptA_Sub001]"
answer_label = "Met"

[[record]]
ordered_residues = "GCACAUGAGGAUCACCCAUGUACAACUGAAGGAGCGAGACAGAACUCAGGUAGGUCGCAGACUGCACAAUUGCGGACGACAUGGG [Exclusion Arginine A GF21]"
answer_label = "Met"


Exercise: Textbook exercise: given the entry AACAUGAGGAUCACCCAUGUUCUCGUGUACCGAGGACCGGUACGGCCGCCACUCGGUUCUCGCGAGGAUGGUCAAAGACUAUCCA [Omei Trp A SS B v5] , state whether its apparent KD of MS2 coat protein is greater than or equal to 20 nM.
Solution: Met

Exercise: What would you report for CGAAUGAAGCAAGAUACCAGUGUAGAUUUAGACAUGAGGAUCACCCAUGUGAGGCAUGAGCACCCUUGGCAGCUUAAGCAGAAAA [theeternabot_sameState_MS2_Theo_B_47] ?
Solution: Met

Exercise: What would you report for UGACGAUACCUGGAUACCAGCGACAUGAGGAUCACCCAUGUAUGAGGAUCAGCCAUGAUAUGCCCUUGGCAGCCACGAAAGUCUU [VUVMULLIN] ?
Solution: Not met

Exercise: What would you report for UGUCCGUGAUCGGCCGCCACUCAACAAACCUGUGGAAACUGACAUGAGGAUCACCCAUGUUCUUGGAGGACCGGGAUUGCUUCGA [theeternabot_sameState_MS2_Trp_B_4] ?
Solution: Not met

* * *

// apparent KD of MS2 coat protein lookup, one value per entry
- System: MS2 coat protein
- Test Name: apparent KD of MS2 coat protein; designed switch direction (-1 OFF switch, 1 ON switch): -1; higher = weaker reporter binding
- Measurement Context: input ligand: FMN 200 uM
I only need the number, in nM, no unit after it.

Solved cases (3 shown):
[[record]]
ordered_residues = "GUAAUGCUGCGAGGAUAUACAUGAGGAUCACCCAUGUGGAUGUCUGAGGCUUUGCCUCAGACGAUGUAGAAGGCGCAGUAAAAU [Mat - Exclusion NG 2 - Mod of JL - D53] (Eterna round: R96, puzzle: Exclusion NG 2)"
measured_property = "apparent KD of MS2 coat protein"
measured_result = 87.5

[[record]]
ordered_residues = "CCGCUGCAAGGAUAUACUUGCGGUGGUGCUCGAGUUCUUCUACUUGAGGAUCACCCAAGUAGAAGGUGCAAAAC [jl-ex2.4.57 ViennaUCT mod] (Eterna round: R97, puzzle: Exclusion 2)"
measured_property = "apparent KD of MS2 coat protein"
measured_result = 34.4

[[record]]
ordered_residues = "CUAAAUCAUGUAGGAUAUGCGUGGCAAAGCUAUGCAGAAGGACAUGAGGAUCACCCAUGUGCUUCCGUCUGAGAACAGACGGUA [Mat - Exclusion NG 1 - Mod of JL - D23] (Eterna round: R96, puzzle: Exclusion NG 1)"
measured_property = "apparent KD of MS2 coat protein"
measured_result = 306


Now take the following sequence into account.
Exercise: Hello, I am looking for reported apparent KD of MS2 coat protein with MS2 coat protein for UCAUGGGAGCGAGGAUAUAGCCCAUGUGAAGAACUAGAAGGCGCAGACAUGAGGAUCACCCAUGUGUUCAUGAGGAGGUGGACA (Eterna round: R96, puzzle: Exclusion NG 1) . Could you help?
Solution: 215
